Values were extracted from PubChem BioAssay AID1963964.

# Test system: 997726-040-R-J2-PDC tumor spheroids, viability;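 also: spheroids exposed to compounds for seven days before readout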
# ASSAY_REMARKS: Anticancer human tumor 997726-040-R-J2-PDC patient-derived squamous cell lung carcinoma cell line growth inhibition [PI3K]
# DETAILS: curve of first compound; second compound 0.1 µM; spheroids with HUVEC and MSC
OUTCOME_MEASURE: IC50 (nM)

The cases that follow already have their IC50 on record.
INSERT INTO assay_data (molecule, outcome_measure, value_unit, meas_value) VALUES
  ('CC(C)n1nc(-c2ccc3oc(N)nc3c2)c2c(N)ncnc21 + CC(Nc1ncnc2nc[nH]c12)c1cc2cccc(Cl)c2c(=O)n1-c1ccccc1', 'IC50', 'nM', 25),
  ('Cn1ncc(Cl)c1-c1cc(C(=O)NC(CN)Cc2cccc(F)c2)sc1Cl (configuration not stated) + Cc1nc(NC(=O)N2CCCC2C(N)=O)sc1-c1ccnc(C(C)(C)C(F)(F)F)c1', 'IC50', 'nM', 77.4),
  ('CC1(C)CCC(CN2CCN(c3ccc(C(=O)NS(=O)(=O)c4ccc(NCC5CCOCC5)c([N+](=O)[O-])c4)c(Oc4cnc5[nH]ccc5c4)c3)CC2)=C(c2ccc(Cl)cc2)C1 + Cc1nc(NC(=O)N2CCCC2C(N)=O)sc1-c1ccnc(C(C)(C)C(F)(F)F)c1', 'IC50', 'nM', 5140),
  ('CC1(C)CCC(Nc2ncc(C(F)(F)F)c(-c3c[nH]c4c(P(C)(C)=O)c(C#N)ccc34)n2)CN1 (configuration not stated) + CC(Nc1ncnc2nc[nH]c12)c1cc2cccc(Cl)c2c(=O)n1-c1ccccc1', 'IC50', 'nM', 3510);

1 = CCCS(=O)(=O)Nc1ccc(F)c(C(=O)c2c[nH]c3ncc(-c4ccc(Cl)cc4)cc23)c1F + CC(Nc1ccc2c(c1)OCCn1cc(N3C(=O)OCC3C(F)F)nc1-2)C(N)=O
2 = CCN1CCN(Cc2ccc(Nc3ncc(F)c(-c4cc(F)c5nc(C)n(C(C)C)c5c4)n3)nc2)CC1 + Cc1nc(NC(=O)N2CCCC2C(N)=O)sc1-c1ccnc(C(C)(C)C(F)(F)F)c1
3 = CC(C)NCC(C(=O)N1CCN(c2ncnc3c2C(C)CC3O)CC1)c1ccc(Cl)cc1 (configuration not stated) + Cc1nc(NC(=O)N2CCCC2C(N)=O)sc1-c1ccnc(C(C)(C)C(F)(F)F)c1
Please order the records by their reported IC50, lowest number first. Answer format: the labels, ordered as requested.
3, 2, 1

I = CC1(C)CCC(CN2CCN(c3ccc(C(=O)NS(=O)(=O)c4ccc(NCC5CCOCC5)c([N+](=O)[O-])c4)c(Oc4cnc5[nH]ccc5c4)c3)CC2)=C(c2ccc(Cl)cc2)C1 + CC(Nc1ncnc2nc[nH]c12)c1cc2cccc(Cl)c2c(=O)n1-c1ccccc1
II = C[C@@H](NC(=O)c1ncnc(N)c1Cl)c1ncc(C(=O)Nc2cc(C(F)(F)F)c(Cl)cn2)s1 + CC(Nc1ccc2c(c1)OCCn1cc(N3C(=O)OCC3C(F)F)nc1-2)C(N)=O
III = Cn1cnc2c(F)c(Nc3ccc(Br)cc3Cl)c(C(=O)NOCCO)cc21 + Cc1nc(NC(=O)N2CCCC2C(N)=O)sc1-c1ccnc(C(C)(C)C(F)(F)F)c1
Could you please sort these 3 entries by IC50 from high to low? Answer format: the labels, ordered as requested.
I, II, III
(I: 9870 nM, II: 4170 nM, III: 66.2 nM)
